Test: Primary fluorescence-based thiol-reactive (MSTI) qHTS assay for identification of artifact compounds. (AID 1845221);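 further: thiol-reactive compounds lower the probe fluorescence signal; nearly all actives have a fitted effect of over 65% in size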
Conditions: MSTI thiol-reactivity probe, 1 h; series mostly up to 53.8 µM
Results filed as inconclusive are left out. Calls of active or inactive are those of the source. The call rests on the fitted dose curve; in most records, active means well fitted inhibition curve with a large enough effect; inconclusive means small, poorly fitted or top-dose-only effect; inactive means no such curve, though single readings can be large or run the other way.
assay metric: outcome

1. CC(C)S(=O)(=O)NC[C@H](C)c1ccc(NC(=O)c2cc(F)cc(F)c2)cc1: inactive
2. COC(=O)c1ccc(OC(CO)C(O)c2ccc(O)c(OC)c2)c(OC)c1 (stereo not drawn): inactive
3. CNS(=O)(=O)CC1CCC(N(C)c2ncnc3[nH]ccc23)CC1 (stereo not drawn): inactive

* * *

Assay: Primary redox qHTS assay for identification of artifact compounds. (AID 1845223);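 further: 0% = DMSO and 100% = reference compound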
Conditions: Amplex Red/HRP redox cycling with DTT, fluorescence; series mostly up to 53.8 µM
Excerpt: PI: Alexander Tropsha Ph.D. UNC Eshelman School of Pharmacy University of North Carolina, Chapel Hill, North Carolina Hits from high-throughput screening (HTS) of chemical libraries are often false positives due to their interference with the assay detection technology. […] Using these curated datasets, we developed and validated several Quantitative Structure-Interference Relationship (QSIR) models to predict nuisance behavior. […]
Records with an inconclusive call do not appear. Active and inactive are the calls of the source. The call rests on the fitted dose curve; in most records, active means well fitted activation curve with a large enough effect; inconclusive means small, poorly fitted or top-dose-only effect; inactive means flat fitted curve, though single readings scatter.
assay metric: redox activity (% of DA3003)

Worked examples, 4 molecules total:
1. CC(=O)O[C@H]1C(=O)[C@@]2(C)[C@H]([C@H](OC(=O)c3ccccc3)[C@]3(O)C[C@H](OC(=O)[C@H](O)[C@@H](NC(=O)c4ccccc4)c4ccccc4)C(C)=C1C3(C)C)[C@]1(OC(C)=O)CO[C@@H]1C[C@@H]2O: 1.32% [at 11.5 µM] (inactive)
2. CC(C)=CCC[C@](C)(O[C@@H]1O[C@H](CO[C@@H]2O[C@H](CO)[C@@H](O)[C@H](O)[C@H]2O)[C@@H](O)[C@H](O)[C@H]1O)C1CC[C@]2(C)[C@@H]1[C@H](O)CC1[C@@]3(C)CC[C@H](O[C@@H]4O[C@H](CO)[C@@H](O)[C@H](O)[C@H]4O[C@@H]4O[C@H](CO)[C@@H](O)[C@H](O)[C@H]4O)C(C)(C)[C@@H]3CC[C@]12C (stereo partly specified): 5.05% [at 11.5 µM] (inactive)
3. CC1(C)CC(NC(=O)C(=O)Nc2ccc(Br)cc2)CC(C)(C)N1: inactive
4. C=C(C)C(=O)OC1C(OC(C)=O)/C(C=O)=C\CC/C(CO)=C/C2OC(=O)C(=C)C21 (stereo unspecified): inactive

Query :: So what does the record say about redox activity (% of DA3003) for C=CC(C)(C)c1[nH]c2cc3c(cc2c1CC1NC(=O)C2CCCN2C1=O)C=CC(C)(C)O3 (stereo unspecified) ?
Result :: inactive

Query :: So what does the record say about redox activity (% of DA3003) for CC1(C=O)CC[C@]2(C(=O)O[C@@H]3O[C@H](CO)[C@@H](O)[C@H](O)[C@H]3O)CC[C@]3(C)C(=CCC4[C@@]5(C)C[C@H](O)[C@H](O[C@@H]6OC[C@@H](O)[C@H](O)[C@H]6O)[C@@](C)(CO)C5CC[C@]43C)C2C1 (stereo partly specified) ?
Result :: 8.25% [at 11.5 µM] (inactive)
